biological target: D816V Kit (Homo sapiens, UniProt P10721, D816V); experiment: Kit D816V assay at Km (Caliper electrophoretic mobility shift); details: 15 uM ATP, 25 C, 90 minutes
Sequence (P10721 26-976 D816V): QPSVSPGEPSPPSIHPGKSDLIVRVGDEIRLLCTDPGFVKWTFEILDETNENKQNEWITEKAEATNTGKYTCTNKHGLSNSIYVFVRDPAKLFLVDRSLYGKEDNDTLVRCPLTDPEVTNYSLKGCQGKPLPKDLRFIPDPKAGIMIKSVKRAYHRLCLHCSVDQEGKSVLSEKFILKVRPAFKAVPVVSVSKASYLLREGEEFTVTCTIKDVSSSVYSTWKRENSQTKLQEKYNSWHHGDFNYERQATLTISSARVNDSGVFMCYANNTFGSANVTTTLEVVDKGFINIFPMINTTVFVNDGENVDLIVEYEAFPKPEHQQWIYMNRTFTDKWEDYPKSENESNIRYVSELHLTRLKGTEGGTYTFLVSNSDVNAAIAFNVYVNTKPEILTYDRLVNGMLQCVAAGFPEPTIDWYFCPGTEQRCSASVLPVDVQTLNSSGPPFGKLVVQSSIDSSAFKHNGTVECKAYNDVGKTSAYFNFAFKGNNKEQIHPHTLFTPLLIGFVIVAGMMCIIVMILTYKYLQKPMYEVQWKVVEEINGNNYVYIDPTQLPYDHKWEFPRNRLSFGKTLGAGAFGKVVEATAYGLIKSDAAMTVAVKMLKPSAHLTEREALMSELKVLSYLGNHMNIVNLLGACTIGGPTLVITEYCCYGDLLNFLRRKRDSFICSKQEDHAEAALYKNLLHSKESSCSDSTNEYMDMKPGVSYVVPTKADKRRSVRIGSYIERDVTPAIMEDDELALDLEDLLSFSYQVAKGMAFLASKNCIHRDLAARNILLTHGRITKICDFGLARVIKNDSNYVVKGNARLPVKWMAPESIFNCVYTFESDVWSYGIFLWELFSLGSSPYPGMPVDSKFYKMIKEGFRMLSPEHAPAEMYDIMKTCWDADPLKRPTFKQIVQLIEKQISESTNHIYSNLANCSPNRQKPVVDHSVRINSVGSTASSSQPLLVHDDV
pIC50: −log10 of the molar value.
Measured pIC50 accompanies every entry in the list below.

Guide cases for pIC50, answers given:
chemical_structure=OC1(Cn2cc(Nc3ncnc(N4CCN(c5ncc(Cc6ccccc6)cn5)CC4)n3)cn2)CCNCC1 measurement_kind=pIC50 endpoint_result="> 9.00"
chemical_structure=O[C@H]1CCCN(c2ccc(Nc3ncnc(N4CCN(c5ncc(Cc6ccc(F)cc6)cn5)CC4)n3)cc2)C1 measurement_kind=pIC50 endpoint_result="8.00 to 9.00"
chemical_structure=O[C@H]1CCCN(c2ccc(Nc3ncnc(N4CCN(c5ncc(Cc6ccccc6)cn5)CC4)n3)cc2)C1 measurement_kind=pIC50 endpoint_result="> 9.00"
chemical_structure=Fc1ccc(Sc2ncc(N3CCN(c4ncnc(Nc5cnn(C[C@@H]6CNCCO6)c5)n4)CC3)nn2)cc1 measurement_kind=pIC50 endpoint_result="8.00 to 9.00"
chemical_structure=C[C@H](O)CN1CCc2ccc(Nc3ncnc(N4CCN(c5ncc(Cc6ccccc6)cn5)CC4)n3)cc2C1 measurement_kind=pIC50 endpoint_result="> 9.00"
chemical_structure=Nc1cccc(Nc2ncnc(N3CCN(c4ncc(Cc5ccccc5)cn4)CC3)n2)c1 measurement_kind=pIC50 endpoint_result="> 9.00"

Here's the next entry for you.
[Q] Find pIC50 for "CC(C)(O)[C@@H](O)c1ccc(Nc2ncnc(N3CCN(c4ncc(Cc5ccccc5)cn4)CC3)n2)cc1" on D816V Kit (Homo sapiens, UniProt P10721, D816V) and write it down.
[A] > 9.00
